- assay_system: Mineralocorticoid receptor (Homo sapiens, UniProt P08235)
- Sequence (P08235 whole entry): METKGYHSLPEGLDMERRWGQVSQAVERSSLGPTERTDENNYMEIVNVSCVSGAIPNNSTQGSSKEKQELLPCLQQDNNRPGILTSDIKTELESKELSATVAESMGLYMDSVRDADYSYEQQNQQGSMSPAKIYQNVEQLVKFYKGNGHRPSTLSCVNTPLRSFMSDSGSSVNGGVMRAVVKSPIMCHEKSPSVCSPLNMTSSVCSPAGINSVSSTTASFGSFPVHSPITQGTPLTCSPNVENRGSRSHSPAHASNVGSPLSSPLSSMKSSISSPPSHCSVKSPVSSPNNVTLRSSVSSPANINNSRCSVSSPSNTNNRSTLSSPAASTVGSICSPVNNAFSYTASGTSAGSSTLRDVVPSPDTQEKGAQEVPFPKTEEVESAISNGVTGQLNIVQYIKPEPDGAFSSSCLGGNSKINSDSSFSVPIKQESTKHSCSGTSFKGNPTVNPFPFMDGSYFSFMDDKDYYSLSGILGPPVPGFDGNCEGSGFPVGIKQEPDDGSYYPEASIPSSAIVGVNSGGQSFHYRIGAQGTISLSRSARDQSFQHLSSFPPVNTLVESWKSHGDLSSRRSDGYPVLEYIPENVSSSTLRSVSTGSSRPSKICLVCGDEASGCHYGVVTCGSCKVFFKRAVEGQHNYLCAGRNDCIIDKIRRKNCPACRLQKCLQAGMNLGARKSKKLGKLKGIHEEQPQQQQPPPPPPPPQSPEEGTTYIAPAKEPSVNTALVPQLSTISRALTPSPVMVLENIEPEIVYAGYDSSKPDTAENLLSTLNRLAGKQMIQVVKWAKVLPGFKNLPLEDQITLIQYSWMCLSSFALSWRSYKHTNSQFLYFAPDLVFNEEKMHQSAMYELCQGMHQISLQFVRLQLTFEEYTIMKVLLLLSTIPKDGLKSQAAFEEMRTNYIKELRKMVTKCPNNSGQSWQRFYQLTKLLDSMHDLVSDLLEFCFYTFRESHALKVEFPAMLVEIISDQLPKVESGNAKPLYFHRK
Compiled record: IC50 values for Mineralocorticoid receptor (Homo sapiens, UniProt P08235) across several sources.
metric_name: IC50 (µM)

{"columns": ["compound", "metric_name", "unit_abbreviation", "number"],
 "data": [
  ["CC(C)(CC(O)(CC1CCCCC1)C(=O)Nc1ccc2c(c1)COC2=O)c1cc(F)ccc1O (stereo not given)", "IC50", "µM", 0.14]
]}

1. CC[C@@H](Cc1ccc(O)cc1)NS(=O)(=O)c1c(C)cc(C)cc1C
2. COc1ccc(F)cc1C(C)(C)CC(O)(Cn1ccc(=O)c2ccccc21)C(F)(F)F (stereo not given)
3. C[C@H](c1ccccc1)N1C(=O)O[C@](Cc2ccccc2)(C(=O)NCc2ccc3ccccc3n2)C1=O
Ascending by IC50, please. Answer format: the labels, in the requested order.
2, 3, 1
